assay: qHTS profiling of the MIPE4 collection as inhibitors of Plasmodium falciparum (3D7) proliferation (AID 743344);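 further: scaled between DMSO vehicle wells and 0.29 µM artemisinin as full inhibition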; conditions: P. falciparum 3D7 in erythrocytes, SYBR Green DNA fluorescence, 72 h; at 28.5 µM unless noted
property: parasite growth, % of DMSO control (%)
State just the number; it will be interpreted in %.

Example compounds with recorded parasite growth, % of DMSO control:
[[record]]
mol = "C[C@]12CC[C@@H]3c4ccc(O)cc4CC[C@H]3[C@H]1[C@@H](O)[C@@H](O)[C@H]2O"
property = "parasite growth, % of DMSO control"
resultnumber = 5.15

[[record]]
mol = "Cc1cccc(-c2[nH]c(C(C)(C)C)nc2-c2ccc3c(c2)OCO3)n1"
property = "parasite growth, % of DMSO control"
resultnumber = 9.08


Q. # input compound: `CC(C)c1onc(-c2c(Cl)cccc2Cl)c1COc1ccc(C=Cc2cccc(C(=O)O)c2)c(Cl)c1` ; wanted: its parasite growth, % of DMSO control
A. 60.6

Q. # input compound: `Cc1cc(CS(=O)(=O)c2ccccc2)cc(OCc2ccc(CN3CCC[C@H]3CO)cc2)c1` ; wanted: its parasite growth, % of DMSO control
A. 33.1

Q. # input compound: `Nc1ccn([C@@H]2O[C@H](CO)[C@@H](O)[C@H]2O)c(=O)n1` ; wanted: its parasite growth, % of DMSO control
A. 89.8

The origin of these recorded values is PubChem BioAssay (NCATS).
